# target under test: T1, His-tagged, full-length PCSK9 (human, UniProt Q8NBP7 31-692)
# T1 construct: secreted PCSK9 is autocatalytically cleaved into prodomain and catalytic domain + CRD (from S153), which stay associated; also called His-PCSK9; proprotein convertase subtilisin/kexin type 9; not shown: His tag
# T1 sequence (Q8NBP7 31-692 limits assumed): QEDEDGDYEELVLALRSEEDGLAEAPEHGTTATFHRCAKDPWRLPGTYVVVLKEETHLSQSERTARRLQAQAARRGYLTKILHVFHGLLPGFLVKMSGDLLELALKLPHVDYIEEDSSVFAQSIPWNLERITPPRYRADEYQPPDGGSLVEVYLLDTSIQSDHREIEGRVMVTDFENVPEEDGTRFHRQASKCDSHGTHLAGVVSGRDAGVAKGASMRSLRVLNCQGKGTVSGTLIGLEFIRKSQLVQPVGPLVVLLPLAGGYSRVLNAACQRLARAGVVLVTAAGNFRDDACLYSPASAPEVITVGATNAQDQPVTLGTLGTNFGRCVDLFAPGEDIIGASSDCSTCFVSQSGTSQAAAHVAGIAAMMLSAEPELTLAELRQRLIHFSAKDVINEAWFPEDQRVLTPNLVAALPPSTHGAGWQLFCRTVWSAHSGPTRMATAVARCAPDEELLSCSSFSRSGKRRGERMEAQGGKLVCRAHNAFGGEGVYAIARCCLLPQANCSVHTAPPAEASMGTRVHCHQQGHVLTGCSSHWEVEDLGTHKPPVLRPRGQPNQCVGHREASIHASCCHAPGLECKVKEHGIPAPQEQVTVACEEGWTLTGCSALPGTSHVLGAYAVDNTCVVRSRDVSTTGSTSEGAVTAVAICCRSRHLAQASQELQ
# experimental protocol: TR-FRET competition (PCSK9/EGF(A) assay); competitor EGF(A)-Fc;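 also: proximity signal from anti-His APC on PCSK9 paired with anti-Fc europium on the Fc ligand, read as normalized TR-FRET ratio across compound dilutions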
pIC50: −log10 of the molar value. Bridge positions count the residues as written; N and C are the ends. Square brackets hold non-standard residues; d marks the D form.
reported metric: pIC50

The recorded pIC50 for entry Ac-CRLPWNLQR[dI]GLPC-NH2 (disulfide 1-14; SMILES CC[C@@H](C)[C@H]1NC(=O)[C@H](CCCNC(=N)N)NC(=O)[C@H](CCC(N)=O)NC(=O)[C@H](CC(C)C)NC(=O)[C@H](CC(N)=O)NC(=O)[C@H](Cc2c[nH]c3ccccc23)NC(=O)[C@@H]2CCCN2C(=O)[C@H](CC(C)C)NC(=O)[C@H](CCCNC(=N)N)NC(=O)[C@@H](NC(C)=O)CSSC[C@@H](C(N)=O)NC(=O)[C@@H]2CCCN2C(=O)[C@H](CC(C)C)NC(=O)CNC1=O) [Compound 101 (Ac-CRLPWNLQRiGLPC-NH2)] equals < 4.30

The recorded pIC50 for entry Ac-CRLPWALQRIGLPC-NH2 (disulfide 1-14; SMILES CC[C@H](C)[C@@H]1NC(=O)[C@H](CCCNC(=N)N)NC(=O)[C@H](CCC(N)=O)NC(=O)[C@H](CC(C)C)NC(=O)[C@H](C)NC(=O)[C@H](Cc2c[nH]c3ccccc23)NC(=O)[C@@H]2CCCN2C(=O)[C@H](CC(C)C)NC(=O)[C@H](CCCNC(=N)N)NC(=O)[C@@H](NC(C)=O)CSSC[C@@H](C(N)=O)NC(=O)[C@@H]2CCCN2C(=O)[C@H](CC(C)C)NC(=O)CNC1=O) [Compound 75 (Ac-CRLPWALQRIGLPC-NH2)] equals < 4.30
